tested on: Mycobacterium tuberculosis; assay: Antimycobacterial activity against multidrug-susceptible Mycobacterium tuberculosis H37Rv ATCC 27294 after 4 weeks; assay type: functional; settings: H37Rv ATCC 27294, 672 h
Quick reference: MIC of the listed items.
measured-endpoint: MIC

• CCc1ccc(C2C(C(=O)Nc3ccccc3)=C(C)NC(C)=C2C(=O)Nc2ccccc2)cc1 = > 25 µg/mL
• CC1=C(C(=O)Nc2ccc(C)cc2)C(c2ccccn2)C(C(=O)Nc2ccc(C)cc2)=C(C)N1 = > 25 µg/mL
• CC1=C(C(=O)Nc2ccccc2)C(c2ccco2)C(C(=O)Nc2ccccc2)=C(C)N1 = > 25 µg/mL
